Assay: AUC (infinity) in Sprague-Dawley rat at 0.5 mg/kg, iv or 2.5 mg/kg, po using 1:1 PEG-400/water formulation by LC-MS/MS analysis
Format: ADME, organism-based
Set-up: dose 2.5 mg/kg
Details: in vivo
RECORDED METRIC: AUC(0-inf) (ng·h/mL)
Answers are plain numbers, in ng·h/mL.

Q: Record request: AUC(0-inf) value, item Cn1c(=O)n(CC(=O)N2CCC2)c2cc(-c3ccc(C(F)(F)F)s3)cnc21
Result: 1830

---

Target: Cytochrome P450 3A4 (Homo sapiens, UniProt P08684)
Sequence (P08684 whole entry): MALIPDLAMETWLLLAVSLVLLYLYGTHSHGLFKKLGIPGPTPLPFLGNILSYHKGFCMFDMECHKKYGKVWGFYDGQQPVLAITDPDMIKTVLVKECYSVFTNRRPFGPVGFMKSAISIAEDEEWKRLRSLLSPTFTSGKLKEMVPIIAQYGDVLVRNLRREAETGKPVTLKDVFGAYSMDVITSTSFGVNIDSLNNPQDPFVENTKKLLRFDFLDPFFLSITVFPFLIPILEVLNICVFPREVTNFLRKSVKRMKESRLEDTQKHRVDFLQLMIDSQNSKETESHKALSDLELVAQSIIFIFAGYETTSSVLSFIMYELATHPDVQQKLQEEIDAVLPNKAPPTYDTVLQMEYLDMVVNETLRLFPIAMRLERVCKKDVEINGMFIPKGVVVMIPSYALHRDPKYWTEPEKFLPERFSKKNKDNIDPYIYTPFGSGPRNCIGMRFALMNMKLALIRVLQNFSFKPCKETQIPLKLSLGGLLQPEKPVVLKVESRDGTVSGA
Assay: Inhibition of CYP3A4 in human liver microsomes using midazolam as substrate measured after 15 mins by LC-MS/MS analysis
Type: ADME
RECORDED METRIC: IC50

Q: // lookup IC50 for Cn1c(=O)n(CC(=O)N2CCC2)c2cc(-c3ccc(C(F)(F)F)s3)cnc21
Result: > 50 µM
